Target: UniProtKB P63073
Sequence (P63073 whole entry): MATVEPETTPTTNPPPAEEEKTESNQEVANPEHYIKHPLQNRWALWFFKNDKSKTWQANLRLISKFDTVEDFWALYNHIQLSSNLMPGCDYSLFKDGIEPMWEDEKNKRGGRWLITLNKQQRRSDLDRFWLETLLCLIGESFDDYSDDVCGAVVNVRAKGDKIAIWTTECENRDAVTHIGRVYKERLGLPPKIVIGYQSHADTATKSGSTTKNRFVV
Experiment: eIF4E–eIF4G protein interaction inhibitors, dose response, biochemical, TR-FRET (AID 855);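 also: potency for disrupting eIF4E binding to eIF4GI seen as loss of FRET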
Type: functional
Activity calls are given as the source filed them.
REPORTED ENDPOINT: IC50

Before answering, review these 2 worked examples.
{"MOLECULE": "Oc1nc2ccccc2n2c(-c3ccccc3)nnc12", "RESULT": "34.4 µM (inactive)"}
{"MOLECULE": "Oc1c(C(c2cccs2)N2CCN(c3ccccc3)CC2)ccc2cccnc12 (stereo not given)", "RESULT": "> 64 µM (inactive)"}

## Input Look up IC50: COc1ccc(OCC(=O)N2CC3(C)CC2CC(C)(C)C3)cc1 (stereo not given)
## Output > 64 µM (inactive)

## Input I'd like to know its IC50. The molecule in question is Cc1ccc(S(=O)(=O)N2CCN(C(C)C(=O)Nc3ccccc3-c3ccccc3)CC2)cc1 (stereo not given)
## Output > 64 µM (inactive)

## Input Can you look up the measured IC50 of CC(=O)C1=C(C)NC(SCc2ccc(C#N)cc2)=C(C#N)C1c1ccco1 (stereo not given) for me?
## Output > 64 µM (inactive)

====

Molecular target: Trace amine-associated receptor 1 (Homo sapiens)
Sequence (Q96RJ0 whole entry): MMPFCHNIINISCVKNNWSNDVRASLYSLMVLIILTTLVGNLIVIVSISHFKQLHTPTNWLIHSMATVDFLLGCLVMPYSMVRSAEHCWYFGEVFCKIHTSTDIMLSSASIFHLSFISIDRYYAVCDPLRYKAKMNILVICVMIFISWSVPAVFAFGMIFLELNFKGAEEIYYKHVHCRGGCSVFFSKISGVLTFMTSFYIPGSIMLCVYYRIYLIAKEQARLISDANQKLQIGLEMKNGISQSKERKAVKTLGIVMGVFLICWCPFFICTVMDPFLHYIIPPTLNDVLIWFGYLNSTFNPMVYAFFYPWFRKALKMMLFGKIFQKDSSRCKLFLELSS
Experiment: Fluorescence-based cell-based high throughput dose response assay to identify agonists of the human trace amine associated receptor 1 (TAAR1).
Format: functional
Active and inactive are the calls of the source.
Mark one answer only. Choices: active, inactive

Example entries and their recorded answers appear below.
{"COMPOUND": "COc1cccc(NC(=N)N)c1", "EXPERIMENTAL SYSTEM": "Trace amine-associated receptor 1 (Homo sapiens)", "DISCRETE LABEL": "active"}
{"COMPOUND": "COc1cccc(C)c1NC1=NCCO1", "EXPERIMENTAL SYSTEM": "Trace amine-associated receptor 1 (Homo sapiens)", "DISCRETE LABEL": "active"}
{"COMPOUND": "O=C(Nc1cccc2ccccc12)N1CCc2ccccc2C1", "EXPERIMENTAL SYSTEM": "Trace amine-associated receptor 1 (Homo sapiens)", "DISCRETE LABEL": "active"}
{"COMPOUND": "O=C(CNC(=O)c1ccccc1F)N/N=C\\C=C\\c1ccccc1", "EXPERIMENTAL SYSTEM": "Trace amine-associated receptor 1 (Homo sapiens)", "DISCRETE LABEL": "inactive"}
{"COMPOUND": "OC(COC(c1ccc(Cl)cc1)c1ccc(Cl)cc1)CN1CCc2ccccc2C1 (stereo unspecified)", "EXPERIMENTAL SYSTEM": "Trace amine-associated receptor 1 (Homo sapiens)", "DISCRETE LABEL": "active"}

Turning now to a further compound:
## Input State the result this test recorded for O=C(O)C1C2CCC(C2)C1C(=O)NCCC1=CCCCC1 (stereo unspecified) .
## Output active

====

Biological target: Genome polyprotein (dengue virus type 2, UniProt P29990)
Sequence (P29990 2492-3391 limits assumed): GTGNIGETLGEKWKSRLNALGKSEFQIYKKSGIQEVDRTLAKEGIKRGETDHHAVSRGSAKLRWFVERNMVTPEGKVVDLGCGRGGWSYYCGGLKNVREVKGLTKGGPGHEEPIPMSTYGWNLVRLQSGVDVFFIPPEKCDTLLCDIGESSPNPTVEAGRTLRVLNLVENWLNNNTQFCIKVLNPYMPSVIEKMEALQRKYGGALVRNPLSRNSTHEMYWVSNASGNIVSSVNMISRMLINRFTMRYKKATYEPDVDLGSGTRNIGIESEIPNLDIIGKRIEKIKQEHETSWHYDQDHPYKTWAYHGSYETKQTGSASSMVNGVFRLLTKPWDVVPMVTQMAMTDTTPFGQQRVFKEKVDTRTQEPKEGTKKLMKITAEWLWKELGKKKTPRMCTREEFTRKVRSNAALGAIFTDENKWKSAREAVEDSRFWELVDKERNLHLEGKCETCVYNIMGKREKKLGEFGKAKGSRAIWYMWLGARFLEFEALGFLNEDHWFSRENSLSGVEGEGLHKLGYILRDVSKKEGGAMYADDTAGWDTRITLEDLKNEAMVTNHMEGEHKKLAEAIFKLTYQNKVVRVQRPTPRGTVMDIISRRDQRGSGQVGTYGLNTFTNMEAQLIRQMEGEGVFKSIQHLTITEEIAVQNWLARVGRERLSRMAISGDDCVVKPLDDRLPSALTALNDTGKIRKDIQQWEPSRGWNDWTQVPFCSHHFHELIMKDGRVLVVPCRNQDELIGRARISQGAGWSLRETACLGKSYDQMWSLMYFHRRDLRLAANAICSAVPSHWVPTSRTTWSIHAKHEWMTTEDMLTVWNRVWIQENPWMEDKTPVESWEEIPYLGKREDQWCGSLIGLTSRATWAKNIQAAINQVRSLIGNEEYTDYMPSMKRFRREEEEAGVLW
Experiment: Dengue-2 NS5 methyltransferase inhibitors, primary screen, biochemical, confirmation dose response (AID 588689)
Assay type: functional
Activity calls are given as the source filed them.
REPORTED ENDPOINT: IC50

Past entries and their recorded results:
{"MOLECULE": "O=C(O)c1[nH]c2ccccc2c1C(c1cc(Cl)cc([N+](=O)[O-])c1O)c1c(C(=O)O)[nH]c2ccccc12", "IC50": "9.77 µM (active)"}
{"MOLECULE": "O=C(O)CCN1C(=O)/C(=C\\c2cccc(Oc3ccccc3)c2)SC1=S", "IC50": "37.4 µM (active)"}
{"MOLECULE": "O=c1oc2c(cc1O)oc(=O)c1cc(O)c(O)c(O)c12", "IC50": "> 100 µM (active)"}
{"MOLECULE": "Cc1ccc(-c2ccc(/C=N/NC3=NC(=O)C(CC(=O)O)S3)o2)c([N+](=O)[O-])c1 (configuration not stated)", "IC50": "88.6 µM (active)"}
{"MOLECULE": "Oc1nc2ccccc2n2c(-c3ccccc3)nnc12", "IC50": "8.26 µM (active)"}

## Input Lookup: IC50 / Genome polyprotein (dengue virus type 2, UniProt P29990) / `C#CCOc1ccccc1/C=C1/C(=O)ON=C1C`
## Output > 100 µM (active)

## Input Observed IC50 on Genome polyprotein (dengue virus type 2, UniProt P29990) for `Cc1cc(O)c2c(c1)C(=O)[C@@]13Oc4c5c(c(O)c6c(O)cc(C)cc46)C(=O)C[C@H](O)[C@H]5[C@@H]1[C@@H](O)CC(=O)C3=C2O` , please.
## Output 16.7 µM (active)

## Input Form: Entry = `CC(=O)N(C(C)=O)N1C(=O)/C(=C/c2ccc(Cl)cc2)SC1=S` | System = Genome polyprotein (dengue virus type 2, UniProt P29990) | IC50 = ____
## Output 23.5 µM (active)

## Input Give IC50 (Genome polyprotein (dengue virus type 2, UniProt P29990)) of the following molecule: `O=c1oc2c3c4c(cc2s1)CCCN4CCC3`
## Output 86.7 µM (active)

## Input Hello, I am looking for reported IC50 with Genome polyprotein (dengue virus type 2, UniProt P29990) for `Cc1cccc(N2C(=O)C(Cl)=C(N3CCOCC3)C2=O)c1` . Could you help?
## Output 34.5 µM (active)

## Input # value lookup — system Genome polyprotein (dengue virus type 2, UniProt P29990), readout IC50, item `Cc1ccc(Sc2ccc(C=C3C(=O)N(C)C(=O)N(C)C3=O)o2)cc1`
## Output 14.5 µM (active)

## Input Fill in the recorded IC50 for this molecule, with Genome polyprotein (dengue virus type 2, UniProt P29990) as test system: `Cn1c(=O)c2[nH]c(-c3ccccc3)c(O)c2n(C)c1=O`
## Output 18.5 µM (active)

// data source = ChEMBL document CHEMBL1201862
